test system: panel of cancer cell lines; test: Cell viability (CellTiter-Glo) dose-response across cancer cell line panel; type: cell-based, human; conditions: Homo sapiens, CAKI-1, Caki-1;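 further: after 72 h compound incubation with CellTiter-Glo ATP readout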
measured_quantity: EC50 (nM)

I = COCc1ccccc1NCc1ccc([C@H]2[C@@H](O)CCCc3cncn32)c(-c2ccccc2Cl)c1
II = NS(=O)(=O)OC[C@@H]1C[C@@H](n2ccc3c(N[C@H]4CCc5ccccc54)ncnc32)C[C@@H]1O
III = CC(C)C[C@H](NC(=O)[C@H](Cc1ccccc1)NC(=O)c1cnccn1)B(O)O
Request: Order the entries above by descending EC50. Respond with an ordered listing of the labels, as requested.
Result: I, II, III
